- Tested on: NCI-H23
- assay notes: NCI tumour cell line growth inhibition, 48 h
Active and inactive are the calls of the source. Rule as the data show it: active = GI50 up to about 1.1 µM and inactive = higher.

compound: O=C1C=CC(S(=O)(=O)C2=C/C(=C/Nc3ccc(Cl)cc3)C(=O)C=C2)=C/C1=C/Nc1ccc(Cl)cc1
GI50: > 100 µM (inactive)
//
compound: COc1ccc(Cc2nc3cc([N+](=O)[O-])ccc3n2C[C@@H]2CCCN3CCCCC23)cc1 (stereo not given in full)
GI50: 29.8 µM (inactive)
//
compound: N#Cc1c(C#N)c(-c2ccccc2)n(/N=C\c2ccccc2)c1N
GI50: 24.4 µM (inactive)
//
compound: N=c1sc(N2CCOCC2)nn1CC(=O)c1ccccc1
GI50: > 100 µM (inactive)
//
compound: CCOc1ccccc1NC(=O)CCc1nnc2s/c(=C\CCc3ccccc3)c(=O)n12
GI50: > 100 µM (inactive)
//
compound: N[C@H]1c2c(Br)sc(Br)c2C(=O)[C@H]1O
GI50: 3.64 µM (inactive)
//
compound: COc1ccc(OCC(=N/NC(=O)c2ccncc2)/N=C/c2ccncc2)cc1
GI50: > 100 µM (inactive)
//
compound: COc1ccc(Nc2cc(O)nc(O)n2)cc1
GI50: > 100 µM (inactive)
//
compound: CC(=O)OC[C@]1(C)CCCC2(C)C1CCC1C=C(C)[C@H]3CCC12C3 (stereo not given in full)
GI50: 94.4 µM (inactive)
//
compound: CCCCc1ccc(Nc2nc3c(ncn3C3OC(COC(C)=O)C(OC(C)=O)C3OC(C)=O)c(=O)[nH]2)cc1 (stereo not given)
GI50: 17.4 µM (inactive)

Just for reference, ChEMBL document CHEMBL1201862 is where these values come from.
